The reported numbers originate from PubChem BioAssay (NCI).

Test system: SR leukemia
PROTOCOL SUMMARY: NCI tumour cell line growth inhibition, 48 h
READOUT: TGI (µM)
Answer with a number only, understood to be in µM.

Before answering, review these 2 worked examples.
COMPOUND: Cn1c2ccccc2c2c3c(c4c5cc(Br)ccc5n(C)c4c21)C(=O)N(O)C3=O
TGI [µM]: 0.584
--
COMPOUND: CCCn1c2ccccc2c2ccc3c(c21)C(=O)C=CC3=O
TGI [µM]: 0.883

## Input Report TGI, nothing else, for this compound: CC(C)(C)[Si](OC1CC(n2cnc3c(N)ncnc32)OC1CO)(c1ccccc1)c1ccccc1 (configuration not stated)
## Output 43.8
